For each of the compounds below, state its IC50.
experiment: cells
Activity calls are given as the source filed them.

Give IC50 for all compounds that follow.
1. O=S(=O)(c1cccc(-c2csc(-c3ccccc3)n2)c1)N1CCOCC1
2. CCCC(c1nnnn1CC(=O)OCC)N(Cc1cc2c(C)cc(C)cc2nc1O)C1CCCC1 (centres undefined)
3. Cc1ccc(Nc2nc(=O)c3cccnc3s2)c(Br)c1
4. CSc1nnc(Cn2c(=O)sc3ccccc32)n1-c1cccc(Cl)c1

1. 28.4 µM (active)
2. 6.29 µM (active)
3. 25 µM (active)
4. 8.48 µM (active)

* * *

target: Caspase-3 (Homo sapiens, UniProt P42574); format: functional;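 also: Dose-response selectivity test against caspase-3 for candidate inhibitors of sentrin-specific proteases (SENPs)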
Sequence (P42574 29-175 limits assumed): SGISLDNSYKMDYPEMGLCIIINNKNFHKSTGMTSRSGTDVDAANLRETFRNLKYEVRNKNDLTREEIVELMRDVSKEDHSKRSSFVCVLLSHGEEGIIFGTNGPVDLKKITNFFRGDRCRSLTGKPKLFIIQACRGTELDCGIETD
Sequence (P42574 176-277 limits assumed): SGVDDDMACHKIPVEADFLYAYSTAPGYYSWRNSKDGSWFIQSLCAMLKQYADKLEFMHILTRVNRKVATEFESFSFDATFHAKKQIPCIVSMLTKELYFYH
Calls of active or inactive are those of the source.
parameter: IC50

Would you please look over these solved cases?
1. Nc1ccc(Br)c2cccnc12    10.4 µM (active)
2. Cc1cnc(NC(=O)c2sc3ccccc3c2Cl)s1    6.67 µM (active)
3. Cc1ccc(C(=O)COC(=O)c2ccc(Cl)c(N)c2)s1    15 µM (active)
4. Cc1ccc(C(=O)c2c(C)oc3c2C(=O)C(=O)c2ccccc2-3)cc1    29.1 µM (active)
5. Cc1ccc(S(=O)(=O)NC(=NC(S)=Nc2ccccc2)c2ccccc2)cc1    20.4 µM (active)

Give IC50 for all compounds that follow.
1. O=C1C(O)=C/C(=N\c2ccccc2O)c2ccccc21
2. c1ccc(N=Nc2ccc3cccccc2-3)cc1

["8.23 µM (active)", "24.5 µM (active)"]
